Kindly supply the reported protein stability index values for the records listed here.
B1: USP39 (parent)
chain: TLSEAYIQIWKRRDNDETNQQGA

- Variants of: B1
- assay_method_text: protein stability index of a GFP-peptide fusion (GPS, HEK-293T) (PSI 1-6); higher = more stable;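 further: lentivirally expressed fusions sorted by FACS into six bins by GFP to DsRed ratio, PSI derived from sequencing read proportions per bin multiplied by bin number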
- run_parameters: c terminus: native
# print the numeric value only

Lab note: Q20D gave protein stability index of 2.37

Lab note: E4C gave protein stability index of 1.73

Lab note: S3N gave protein stability index of 2.2

Lab note: S3W gave protein stability index of 2.32

Lab note: W10F gave protein stability index of 2.78

Lab note: D16M gave protein stability index of 2.93

Lab note: G22N gave protein stability index of 4.12

Lab note: R12L gave protein stability index of 1.98

Lab note: T18E gave protein stability index of 2.56

Lab note: D14C gave protein stability index of 2.08

Lab note: N15H gave protein stability index of 3.1

Lab note: N15V gave protein stability index of 2.12

Lab note: Y6R gave protein stability index of 3.02

Lab note: I9M gave protein stability index of 2.5

Lab note: T1N gave protein stability index of 2.99

Lab note: Q21M gave protein stability index of 1.8

Lab note: D16E gave protein stability index of 2.14

Lab note: D16K gave protein stability index of 2.32

Lab note: N19D gave protein stability index of 4.38

Lab note: E17C gave protein stability index of 2.33

Lab note: Y6I gave protein stability index of 2.88

Lab note: E17Q gave protein stability index of 1.55

Lab note: A5N gave protein stability index of 2.6

Lab note: G22M gave protein stability index of 3.1

Lab note: A5L gave protein stability index of 2.29

Lab note: L2K gave protein stability index of 2.74

Lab note: N19R gave protein stability index of 2.37

Lab note: A23N gave protein stability index of 4.51

Lab note: T1H gave protein stability index of 1.99

Lab note: K11R gave protein stability index of 1.86

Lab note: L2F gave protein stability index of 2.51

Lab note: N15F gave protein stability index of 2.24

Lab note: R12Q gave protein stability index of 2.87

Lab note: I7R gave protein stability index of 2.68

Lab note: R13Y gave protein stability index of 1.56

Lab note: D14F gave protein stability index of 2

Lab note: S3V gave protein stability index of 1.11

Lab note: D16I gave protein stability index of 1.95

Lab note: T18C gave protein stability index of 1.69

Lab note: W10Y gave protein stability index of 2.53

Lab note: Q21D gave protein stability index of 2.74

Lab note: I7T gave protein stability index of 2.53

Lab note: L2S gave protein stability index of 3.08

Lab note: T18H gave protein stability index of 3.19

Lab note: N19G gave protein stability index of 3.69

Lab note: G22E gave protein stability index of 4.79
